# EC50 annotations
- target under test: Serine/threonine-protein phosphatase (Candida dubliniensis (strain CD36 / CBS 7987 / NCPF 3949 / NRRLY-17841) (Yeast), UniProt B9W6M3)
- Sequence (B9W6M3 whole entry): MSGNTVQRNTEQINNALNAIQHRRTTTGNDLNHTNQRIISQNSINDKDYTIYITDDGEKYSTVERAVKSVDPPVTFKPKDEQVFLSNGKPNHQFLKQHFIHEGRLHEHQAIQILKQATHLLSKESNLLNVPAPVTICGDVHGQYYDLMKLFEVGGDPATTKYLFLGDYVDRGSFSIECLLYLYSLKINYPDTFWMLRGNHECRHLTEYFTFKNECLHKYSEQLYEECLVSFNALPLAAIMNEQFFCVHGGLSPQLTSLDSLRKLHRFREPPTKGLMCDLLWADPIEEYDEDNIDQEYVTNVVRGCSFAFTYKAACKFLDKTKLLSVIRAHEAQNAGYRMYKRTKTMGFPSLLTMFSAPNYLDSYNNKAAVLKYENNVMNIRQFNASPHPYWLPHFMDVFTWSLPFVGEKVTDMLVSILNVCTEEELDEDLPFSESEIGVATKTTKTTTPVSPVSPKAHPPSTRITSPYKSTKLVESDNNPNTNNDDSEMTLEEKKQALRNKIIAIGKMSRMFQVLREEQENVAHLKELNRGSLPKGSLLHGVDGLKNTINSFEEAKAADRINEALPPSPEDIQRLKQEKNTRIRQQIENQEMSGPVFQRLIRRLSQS
- assay procedure: blockers of CaCl2-induced CDRE-lacZ signaling – S. cerevisiae, luminescence, secondary, dose response (AID 2388);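 further: yeast reporter cells carrying a calcineurin-responsive lacZ construct stimulated with calcium chloride; luminescent beta-galactosidase reporter signal in whole cells rather than isolated phosphatase activity; potency for inhibition where a drop in reporter signal means calcineurin blockade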
- Assay type: functional, cell-based
The source made the active and inactive calls. No stated cut-off is given here; in the data, actives have a measured EC50 and inactives only a lower limit.

These solved cases illustrate the format of a correct answer.
In [3]: df
Out[3]:
                                   molecule      recorded_result
0  CC(C)(C)c1ccc(OCCCC(=O)NNC(=O)c2ccccc2O)cc1  > 180 µM (inactive)
1  O=C(Oc1c(CN2CCOCC2)cc(Cl)c2cccnc12)c1ccc(F)cc1  > 180 µM (inactive)
2  CCCC(=O)NC(c1ccco1)c1cc([N+](=O)[O-])c2cccnc2c1O (centres undefined)  > 180 µM (inactive)

Consider the record given below.
Lookup: Reported EC50, molecule "O=C1/C(=C/c2cccnc2)CCc2c1[nH]c1ccccc21" : ____
Found: > 180 µM (inactive)
